- Test system: Vero E6 infected with SARS-CoV-2
- RUN_DESCRIPTION: SARS-CoV-2 infection rate relative to infected DMSO; higher = more infection, active = 60 or less
- COND: 24 h
Can you tell me SARS-CoV-2 infection rate for the items I'm about to list?
Numbers only, in %.

Some compounds with recorded SARS-CoV-2 infection rate:
CC1(C)CCC[C@]2(C)[C@H]3CC(=O)O[C@]3(C)CC[C@@H]12 [Sclareolide (Norambreinolide)] (10 µM)    106
Cc1ccc(S(=O)(=O)OCC(=O)Nc2ccc(C(=O)O)c(O)c2)cc1 [STAT3-inhibitor-VI] (10 µM)    110
CNCCC=C1c2ccccc2C=Cc2ccccc21 [norcyclobenzaprine] (10 µM)    81

Parameters: items (list). Returns: SARS-CoV-2 infection rate for each item.
1. CC[C@H]1[C@@H]2C[C@H]3[C@@H]4N(C)c5ccccc5[C@]45C[C@@H]([C@@H]2[C@H]5O)N3[C@@H]1O [ajmaline] (10 µM)
2. NCCCCCc1c[nH]cn1 [impentamine] (10 µM)
3. CCN(CC)C(=O)[C@@]1(c2ccccc2)C[C@H]1CN [milnacipran] (10 µM)
4. C=CC(=O)N1CCC[C@@H](n2nc(-c3ccc(Oc4ccccc4)cc3)c3c(N)ncnc32)C1 [ibrutinib] (10 µM)
5. O=c1[nH]nc2c3c(cccc13)N=C(CN1Cc3ccccc3C1)N2 (10 µM)
6. COc1ccc(/C=C2\CCCN=C2c2cccnc2)c(OC)c1 (10 µM)

Ans:
1: 106; 2: 92.5; 3: 105; 4: 109; 5: 91; 6: 87

Parameters: items (list). Returns: SARS-CoV-2 infection rate for each item.
1. O=C(NO)c1ccc2[nH]c(=O)c(CCCc3ccccc3)nc2c1 (10 µM)
2. CCN(CC)C(=O)N[C@H]1C[C@@H]2c3cccc4[nH]cc(c34)C[C@H]2N(C)C1 [terguride] (10 µM)

Ans:
1: 100; 2: 110

====

- Test system: Vero E6 infected with SARS-CoV-2
- RUN_DESCRIPTION: inhibition of SARS-CoV-2 cytopathic effect; higher = more antiviral protection, active = above 15
- COND: 10000 nM; 48 h
QUANTITY: inhibition of SARS-CoV-2 cytopathic effect (%)
One number for each entry, in %.

Some compounds with recorded inhibition of SARS-CoV-2 cytopathic effect:
CC[N+](C)(CC)CCOC(=O)C1c2ccccc2Oc2ccccc21    3.41
Cc1cccc(-c2n[nH]cc2-c2ccc(F)c(-c3cnn(CCO)c3)c2)n1    -3.66

Parameters: items (list). Returns: inhibition of SARS-CoV-2 cytopathic effect for each item.
1. Cc1cc(N)c2ccccc2[n+]1CCCCCCCCCC[n+]1c(C)cc(N)c2ccccc21
2. Cn1c(=O)c(F)c(Nc2ccc(I)cc2F)c2c(=O)n(C[C@@H](O)CO)cnc21
3. C=CCN1C[C@H](C)N([C@H](c2ccc(C(=O)N(CC)CC)cc2)c2cccc(O)c2)C[C@H]1C
4. N[C@]1(C(=O)O)CC[C@@H](C(=O)O)C1
5. CCOC(=O)OC(C)OC1=C(C(=O)Nc2ccccn2)N(C)S(=O)(=O)c2ccccc21 (configuration not stated)
6. CC(C(=O)O)c1ccc2c(c1)Cc1ccccc1-2 (configuration not stated)
7. O[C@@H](CN1CCNCC1)Cn1c2ccc(Br)cc2c2cc(Br)ccc21
8. CS[C@H]1SC[C@H]2C(=O)N(C)[C@@H](C(C)C)C(=O)OC[C@@H](NC(=O)c3cnc4ccccc4n3)C(=O)N[C@@H](C)C(=O)N(C)[C@@H]1C(=O)N(C)[C@@H](C(C)C)C(=O)OC[C@@H](NC(=O)c1cnc3ccccc3n1)C(=O)N[C@@H](C)C(=O)N2C

Ans:
1: -3.48; 2: -12.3; 3: -1.22; 4: 1.7; 5: 2.74; 6: 4.16; 7: -21.9; 8: -27

Parameters: items (list). Returns: inhibition of SARS-CoV-2 cytopathic effect for each item.
1. CC(C)(C)CC(C)(C)c1cc(Cc2cc(C(C)(C)CC(C)(C)C)cc(-n3nc4ccccc4n3)c2O)c(O)c(-n2nc3ccccc3n2)c1
2. Nc1nc(F)nc2c1ncn2[C@@H]1O[C@H](CO)[C@@H](O)[C@@H]1O
3. O=c1oc2ccccc2c(O)c1Cc1c(O)c2ccccc2oc1=O
4. OCc1cc(C(O)CNCCCCCCOCCCCc2ccccc2)ccc1O (configuration not stated)
5. OCCN1CCN(CCCN2c3ccccc3C=Cc3ccccc32)CC1
6. O=C1c2ccccc2C(=O)c2ccccc21
7. CC(C(=O)O)c1cccc(C(=O)c2ccccc2)c1 (configuration not stated)

Ans:
1: 3.96; 2: -0.43; 3: 3.32; 4: -1.77; 5: -3.08; 6: 0.18; 7: -0.97
